- study-system: Schistosoma mansoni thioredoxin glutathione reductase (TGR)
- experiment: qHTS Assay for the Inhibitors of Schistosoma Mansoni Peroxiredoxins; further: nearly all actives have a fitted effect of over 60% in size
- condition-parameters: purified TGR, DTNB reduction, TNB absorbance 405 nm; series mostly up to 114 µM
Among all 360,000 compounds or so, about 11,000 (3.1%) were called active. Another 4% or so got no clear call; they are omitted. The call rests on the fitted dose curve; in most records, active means well fitted inhibition curve with a large enough effect; inconclusive means small, poorly fitted or top-dose-only effect; inactive means no such curve, though single readings can be large or run the other way. Only a selection was taken, and actives are over-represented in it overall.
Entry note: the call must match one of true (active), false (inactive)

CCn1c(=O)cc(SCC(=O)NCc2ccc3c(c2)OCO3)c2ccccc21
false
NS(=O)(=O)c1ccc(-c2ccc(/C=C3\SC(=O)NC3=O)o2)cc1
false
CCOc1ccc(NC(=O)c2c(NC(=O)Cc3ccccc3)sc3c2CCC(C)C3)cc1 (centres undefined)
false
Cc1cccc(NC(=O)CSc2ncc(-c3ccccc3)[nH]2)c1C
false
Cc1ccc(CCNC(=O)Cn2c(-c3cccs3)cc3cc(F)ccc32)cc1
false
Cc1cc(C(=O)OCC(=O)Nc2ccccc2Cl)c(C)o1
false
O=C(COC(=O)CCc1c[nH]c(=O)[nH]1)Nc1ccccc1Cl
true
Cc1cccc(NC(=O)COC(=O)CCc2ccccc2)c1C
false

Look up the recorded call for CN(C)c1nc(N(C)C)nc(N(C#N)CCCl)n1 in this test. true

Look up the recorded call for O=C(CSc1ccc(-c2ccco2)nn1)Nc1cccc(F)c1 in this test. true

Look up the recorded call for S=C(NCc1ccc2c(c1)OCO2)NCc1ccco1 in this test. true

Look up the recorded call for O=C1NC(=O)N(Cc2ccco2)C(=O)/C1=C\c1cccn1CCOc1ccccc1 in this test. true

Look up the recorded call for COc1cccc(NC(=O)CCNS(=O)(=O)c2ccc3c(c2)oc(=O)n3C)c1 in this test. false

Look up the recorded call for CCc1ccc(CN(C)Cc2nc(Cc3ccccc3)no2)nc1 in this test. false

---

- study-system: Schistosoma mansoni thioredoxin glutathione reductase (TGR) (UniProt Q962Y6)
- experiment: qHTS Assay for the Inhibitors of Schistosoma Mansoni Peroxiredoxins; further: nearly all actives have a fitted effect of over 60% in size
- condition-parameters: purified TGR, DTNB reduction, TNB absorbance 405 nm; series mostly up to 114 µM
The campaign covered roughly 360,000 compounds. About 11,000 (3.1%) were called active. Not shown: some 4% with an inconclusive outcome. Calls come from the whole dose curve; as a rule, active = well fitted inhibition curve with a large enough effect; inconclusive = small, poorly fitted or top-dose-only effect; inactive = no such curve, though single readings can be large or run the other way. The entries come from a sample that favours actives as a whole.
Entry note: the call must match one of 1 (yes) for active, 0 (no) for inactive

Reference set, count: 5
COc1ccc(N2C(=O)C3C(C2=O)C(C(=O)c2ccccc2)N2CCCC32)cc1 (stereo not given)
1 (yes)
Cc1ccc(C(=O)N/C(=C/C=C/c2ccccc2)C(=O)NCc2ccco2)cc1
0 (no)
COc1ccc(C2(Nc3cccc(F)c3)C(=O)c3ccccc3C2=O)cc1
0 (no)
COc1cc(NC(=O)c2noc3c2CSc2ccccc2-3)cc(OC)c1OC
1 (yes)
CCCNC(=O)c1ccc2c(c1)ncn2-c1ccc(C)cc1C
0 (no)

Look up the recorded call for CCOc1ccc(C(=O)CCC(=O)Nc2ccncc2)cc1 in this test. 0 (no)

Look up the recorded call for CCOc1ccccc1CNC(=O)C1CCCN(S(=O)(=O)c2ccc3c(ccn3C)c2)C1 (stereo not given) in this test. 0 (no)

Look up the recorded call for CNc1ccc(-c2nc(-c3ccco3)no2)cc1[N+](=O)[O-] in this test. 0 (no)

Look up the recorded call for O=C(O)CCn1cc(C=C2C(=O)NC(=S)NC2=O)c(-c2cccc(Br)c2)n1 in this test. 1 (yes)

Look up the recorded call for Cc1cccc(CC(=O)N2CC(=O)Nc3ccc(F)cc3C2c2ccccc2)c1 (stereo not given) in this test. 0 (no)

Look up the recorded call for Cc1cc(C)cc(NC(=S)NCCCN2CCOCC2)c1 in this test. 0 (no)

Look up the recorded call for COc1ccc(-c2nc(Cn3c(=O)cc(C)c4c(C)nn(-c5ccccc5)c43)c(C)o2)cc1OC in this test. 0 (no)

Look up the recorded call for COc1cc(/C=N/O)cc(Br)c1OS(=O)(=O)c1ccc(C)cc1 in this test. 0 (no)

Look up the recorded call for CCCN1CCN(CCCNC(=O)c2ccc3nc(Cc4ccccc4)oc3c2)CC1 in this test. 0 (no)

Look up the recorded call for O=C(NCc1ccco1)/C(=C/c1ccco1)NC(=O)c1ccccc1 in this test. 1 (yes)

Look up the recorded call for O=C(O)CCn1cc(/C=C/C(=O)c2ccc(Cl)cc2)c(-c2cccc(Br)c2)n1 in this test. 0 (no)

Look up the recorded call for O=C(NCC1CCCO1)/C(=C\c1ccco1)NC(=O)c1ccccc1 (stereo not given) in this test. 0 (no)

Look up the recorded call for COc1ccccc1C(=O)N/C(=C/c1ccc2c(c1)OCO2)C(=O)Nc1cccc(C(=O)O)c1 in this test. 0 (no)

Look up the recorded call for COc1ccc(N2CCN(C3=NS(=O)(=O)C(c4cccc(Br)c4)=C3C)CC2)cc1 in this test. 0 (no)

Look up the recorded call for Cc1cc(C)c(/C=C/c2onc(C)c2S(=O)(=O)N2CCC(C(=O)Nc3ccc(Cl)cc3C)CC2)c(C)c1 in this test. 0 (no)

Look up the recorded call for Cc1ccc(NC(=O)CSc2nc3c(c(=O)[nH]2)CN(Cc2ccc4c(c2)OCO4)CC3)cc1C in this test. 0 (no)

Look up the recorded call for COc1cc(/C=N/Nc2ccc(C)cc2)cc(Br)c1O in this test. 1 (yes)

Look up the recorded call for COc1ccc(CCNC(=O)CCCCn2c(=O)c3ccccc3n(Cc3ccccc3C)c2=O)cc1OC in this test. 0 (no)

Look up the recorded call for Cc1nnsc1S(=O)(=O)Cc1ccccc1Cl in this test. 0 (no)

Look up the recorded call for CCc1ccc(NC(=O)c2cnc3c(-c4ccccc4)c(C)nn3c2C)cc1 in this test. 0 (no)

Look up the recorded call for Cc1ccc(C(=O)N/C(=C\c2ccco2)C(=O)NC2CCS(=O)(=O)C2)cc1 (stereo not given) in this test. 1 (yes)

Look up the recorded call for Cc1cc(Br)ccc1NC(=O)Cn1cnc2sc(C)c(S(=O)(=O)N3CCN(C)CC3)c2c1=O in this test. 0 (no)

---

- study-system: Schistosoma mansoni thioredoxin glutathione reductase (TGR)
- experiment: qHTS Assay for the Inhibitors of Schistosoma Mansoni Peroxiredoxins; further: nearly all actives have a fitted effect of over 60% in size
- condition-parameters: purified TGR, DTNB reduction, TNB absorbance 405 nm; series mostly up to 114 µM
The whole screen tested about 360,000 compounds, of which about 11,000 (3.1%) were called active. Another 4% or so got no clear call; they are omitted. Calls come from the whole dose curve; as a rule, active = well fitted inhibition curve with a large enough effect; inconclusive = small, poorly fitted or top-dose-only effect; inactive = no such curve, though single readings can be large or run the other way. The full list was thinned out, with actives kept by preference.
Entry note: the call must match one of yes (1) for active, no (0) for inactive

Clc1ccc(CSc2nnc3c(n2)[nH]c2ccccc23)cc1
no (0)

// next entry
Look up the recorded call for Cc1nnc(NCc2ccccc2)c2c1nnn2Cc1ccc(F)cc1 in this test. no (0)

---

- study-system: Schistosoma mansoni thioredoxin glutathione reductase (TGR) (UniProt Q962Y6)
- experiment: qHTS Assay for the Inhibitors of Schistosoma Mansoni Peroxiredoxins; further: nearly all actives have a fitted effect of over 60% in size
- condition-parameters: purified TGR, DTNB reduction, TNB absorbance 405 nm; series mostly up to 114 µM
Among all 360,000 compounds or so, about 11,000 (3.1%) were called active. Inconclusive results (about 4%) are left out. The sample holds actives, similar compounds and a random draw of the others, so the mix is not that of the screen.
measured-property: outcome

Cc1ccccc1NC(=O)Cn1c(=O)n(CCCCC(=O)NCc2ccccc2Cl)c(=O)c2ccccc21
inactive
Cc1ccc(C(=O)NC(=S)NCc2cccnc2)cc1
inactive
CCCSc1ncc(Cl)c(C(=O)Nc2c(C(=O)Nc3ccccc3)oc3ccccc23)n1
inactive

---

- study-system: Schistosoma mansoni thioredoxin glutathione reductase (TGR) (UniProt Q962Y6)
- experiment: qHTS Assay for the Inhibitors of Schistosoma Mansoni Peroxiredoxins; further: nearly all actives have a fitted effect of over 60% in size
- condition-parameters: purified TGR, DTNB reduction, TNB absorbance 405 nm; series mostly up to 114 µM
Hit rate of the full screen: of about 360,000 compounds, about 11,000 (3.1%) were called active. Another 4% or so got no clear call; they are omitted. Calls follow the shape of the dose curve; as a rule, active = well fitted inhibition curve with a large enough effect; inconclusive = small, poorly fitted or top-dose-only effect; inactive = no such curve, though single readings can be large or run the other way. This excerpt belongs to a sample that is enriched for actives.
Entry note: the call must match one of 1 (active), -1 (inactive)

Cc1c(-c2ccccc2)n[nH]c1C(=O)N=Nc1c(O)[nH]c2ccccc12
-1

// next entry
Look up the recorded call for CCOc1ccc(CCNC(=O)c2csc3c2CCCCC3)cc1 in this test. -1

---

- study-system: Schistosoma mansoni thioredoxin glutathione reductase (TGR) (UniProt Q962Y6)
- experiment: qHTS Assay for the Inhibitors of Schistosoma Mansoni Peroxiredoxins; further: nearly all actives have a fitted effect of over 60% in size; further: potency means the concentration at half of the fitted maximal effect
- condition-parameters: purified TGR, DTNB reduction, TNB absorbance 405 nm; series mostly up to 114 µM
The campaign covered roughly 360,000 compounds. About 11,000 (3.1%) were called active. Roughly 4% stayed inconclusive and do not appear here. The sample as a whole holds a higher share of actives than the screen did.
measured-property: Potency

Worked cases, Potency given:
Cc1ccc(NS(=O)(=O)c2ccc3c(c2)n(C)c(=O)c(=O)n3C)c(C)c1
inactive
CC(C)Oc1ccc(CNC(=O)C2CCN(c3nc4ccccc4n(C)c3=O)CC2)cc1
inactive
Cc1c2cnn(CC(=O)NCc3ccccn3)c(=O)c2c(C)n1Cc1ccc(Cl)cc1
44.7 µM (active)
NC(=O)CSc1nc2c(oc3ccccc32)c(=O)n1Cc1ccccc1
inactive
O=S(=O)(NCCCN1CCOCC1)c1ccc(F)c(Cl)c1
inactive

Just so you know, measured Potency for O=C(NCCCN1CCOCC1)c1ccc([N+](=O)[O-])cc1[N+](=O)[O-] came out at inactive

Just so you know, measured Potency for Cc1ccccc1-n1c(=O)c2ccccc2n(Cc2ccc(F)cc2)c1=O came out at inactive

Just so you know, measured Potency for O=C(NCc1ccccc1Cl)C(=O)NCC1CCCN1S(=O)(=O)c1cccs1 (stereo not given) came out at inactive
